Tested on: blackgrass
Test: Test B pre/postemergence blackgrass
Format: in vivo, Alopecurus myosuroides
Conditions: Preemergence, Rate 125 g/ha; scale 0 to 10, 0 is no effect, 10 is complete control
Property: Blackgrass plant response rating
Lab note: write the figure by itself, no unit.

• Cc1noc(C)c1Cn1c(=O)on(C(=O)N(c2ccccc2)C(C)C)c1=O [Compound 569] = 0
• CC(C)N(C(=O)n1oc(=O)n(CCCCF)c1=O)c1ccc(Cl)cc1 [Compound 551] = 7
• CC(C)C(=O)Cn1c(=O)on(C(=O)N(c2ccccc2)C(C)C)c1=O [Compound 485] = 8

Attention now turns to another entry.
What Blackgrass plant response rating appears in the records for this compound with blackgrass? CCC=CCn1c(=O)on(C(=O)N(c2ccc(Cl)cc2)C(C)C)c1=O [Compound 552]
0

* * *

Collected Giant foxtail plant response rating values appear next to each entry.
System: giant foxtail
Test: Test B pre/postemergence giant foxtail
Assay type: in vivo, Setaria faberii
Settings: Postemergence, Rate 250 g/ha; scale 0 to 10, 0 no effect, 10 complete control
Lab note: write the figure by itself, no unit.

* COc1ccc(-n2c(=O)on(C(=O)N(c3ccc(F)cc3F)C(C)C)c2=O)c(OC)c1 | 0
* CC(C)N(C(=O)n1oc(=O)n(Cc2ccccc2)c1=O)c1ccc(F)cc1 | 3
* CCN(CC)C(=O)n1oc(=O)n(-c2c(C)cccc2C)c1=O | 7
* CC(C)N(C(=O)n1oc(=O)n(-c2cnn(C)c2Cl)c1=O)c1ccc(F)cc1 | 3
* CC(C)N(C(=O)n1oc(=O)n(-c2cccc3c2CCCC3)c1=O)c1ccc(F)cc1 | 1

What value of Giant foxtail plant response rating has been recorded for this entry: "CCCn1c(=O)on(C(=O)N(c2ccccc2)C(C)C)c1=O"
9

What value of Giant foxtail plant response rating has been recorded for this entry: "CC(C)N(C(=O)n1oc(=O)n(-c2ccccc2)c1=O)c1ccc(F)cc1"
4

What value of Giant foxtail plant response rating has been recorded for this entry: "CCN(C(=O)n1oc(=O)n(-c2ccccc2OC)c1=O)C1CCCCC1"
0

What value of Giant foxtail plant response rating has been recorded for this entry: "COc1ccccc1-n1c(=O)on(C(=O)N(c2ccc(F)cc2F)C(C)C)c1=O"
4

* * *

Collected Plant response rating, Wheat (winter) values appear next to each entry.
System: winter wheat
Assay: Test E winter wheat
Type: in vivo, Triticum aestivum
Conditions: Postemergence, Rate 250 g/ha; 0 to 100 scale (0 no effect, 100 complete control)
Lab note: write the figure by itself, no unit.

Completed entries (count: 3):
• CC(C)N(C(=O)n1oc(=O)n(Cc2cccs2)c1=O)c1ccc(F)cc1F = 55
• Cc1ccc(N(C(=O)n2oc(=O)n(-c3ccccc3C)c2=O)C(C)C)cc1 = 0
• CC(C)N(C(=O)n1oc(=O)n(-c2ccccc2)c1=O)c1ccc(F)cc1 = 10

What value of Plant response rating, Wheat (winter) has been recorded for this entry: "COc1ccccc1-n1c(=O)on(C(=O)N(c2ccc(F)cc2)C(C)C)c1=O"
0

* * *

Test system: crabgrass
Assay: Test B pre/postemergence crabgrass
Assay type: in vivo, Digitaria sanguinalis
Conditions: Preemergence, Rate 250 g/ha; scale 0 to 10, 0 is no effect, 10 is complete control
Property: Crabgrass plant response rating
Lab note: write the figure by itself, no unit.

What value of Crabgrass plant response rating has been recorded for this entry: "CC(C)N(Cc1ccccc1)C(=O)n1oc(=O)n(C(C)C)c1=O"
8

What value of Crabgrass plant response rating has been recorded for this entry: "CC(C)N(C(=O)n1oc(=O)n(-c2cnn(C)c2)c1=O)c1ccccc1"
5

What value of Crabgrass plant response rating has been recorded for this entry: CC1CCCCC1n1c(=O)on(C(=O)N(c2ccccc2)C(C)C)c1=O (stereo not shown)
9

What value of Crabgrass plant response rating has been recorded for this entry: "C=CCn1c(=O)on(C(=O)N(c2ccc(F)cc2)C2CC2)c1=O"
0

* * *

Test system: morningglory
Assay: Test B pre/postemergence morningglory
Type: in vivo, Ipomoea hederacea
Conditions: Postemergence, Rate 250 g/ha; scale of 0 to 10, 0 is no effect, 10 is complete control
Property: Morningglory plant response rating
Lab note: write the figure by itself, no unit.

Completed entries (count: 6):
• CC(C)N(C(=O)n1oc(=O)n(CC(=O)C2CC2)c1=O)c1ccc(Cl)cc1 = 7
• CC(C)N(C(=O)n1oc(=O)n(CC(=O)C(F)(F)F)c1=O)c1ccc(F)cc1F = 0
• COCCn1c(=O)on(C(=O)N(c2ccccc2)C(C)C)c1=O = 4
• CC(C)N(C(=O)n1oc(=O)n(CCF)c1=O)c1ccc(Cl)cc1 = 4
• CCOP(=O)(OCC)C(C)n1c(=O)on(C(=O)N(c2ccc(F)cc2)C(C)C)c1=O (stereo not shown) = 0
• CC(C)N(C(=O)n1oc(=O)n(CCF)c1=O)c1ccc(F)cc1F = 6

Attention now turns to another entry.
What value of Morningglory plant response rating has been recorded for this entry: "CC(C)N(C(=O)n1oc(=O)n(CC2=NOCCC2)c1=O)c1ccc(F)cc1F"
2

* * *

Collected Plant response rating, Green foxtail values appear next to each entry.
Tested on: green foxtail
Assay: Test E green foxtail
Type: in vivo, Setaria viridis
Conditions: Preemergence; Rate 500 g/ha; 0 to 100 scale where 0 is no effect and 100 is complete control

Completed entries (count: 3):
- CC(C)N(C(=O)n1oc(=O)n(Cc2cccs2)c1=O)c1ccc(F)cc1F [Compound 86]: 55
- CC(C)N(C(=O)n1oc(=O)n(-c2ccccc2)c1=O)c1ccc(F)cc1 [Compound 38]: 100
- Cc1ccc(N(C(=O)n2oc(=O)n(-c3ccccc3C)c2=O)C(C)C)cc1 [Compound 40]: 90

What value of Plant response rating, Green foxtail has been recorded for this entry: CC1CCCCC1n1c(=O)on(C(=O)N(c2ccccc2)C(C)C)c1=O (stereo not shown) [Compound 162]
65

* * *

Test system: rape
Assay: Test B pre/postemergence rape
Assay type: in vivo, Brassica napus
Settings: Rate 500 g/ha, Postemergence; scale 0 to 10, 0 no effect, 10 complete control
Property: Rape plant response rating
Lab note: write the figure by itself, no unit.

Completed entries (count: 3):
• CC(C)N(C(=O)n1oc(=O)n(-c2cccc3c2CCCC3)c1=O)c1ccc(F)cc1 [Compound 90] = 0
• CC(C)N(C(=O)n1oc(=O)n(C2CCCCC2)c1=O)c1ccccc1 [Compound 112] = 4
• CC(C)N(C(=O)n1oc(=O)n([C@H](C)c2ccccc2)c1=O)c1ccc(F)cc1F [Compound 238] = 6

Attention now turns to another entry.
What value of Rape plant response rating has been recorded for this entry: CCCCc1ccc(N(C(=O)n2oc(=O)n(-c3ccccc3C)c2=O)C(C)C)cc1 [Compound 229]
0

* * *

Collected B. signalgrass plant response rating values appear next to each entry.
Tested on: surinam grass
Assay: Test B pre/postemergence surinam grass
Type: in vivo, Brachiaria decumbens
Conditions: Preemergence, Rate 250 g/ha; scale of 0 to 10 where 0 is no effect and 10 is complete control
Experimental: […] At the same time, these crop and weed species were also treated with postemergence applications of test chemicals formulated in the same manner. […] Treated plants and controls were maintained in a greenhouse for twelve to sixteen days, after which all species were compared to controls and visually evaluated. […]

Completed entries (count: 2):
* COC(=O)CCCn1c(=O)on(C(=O)N(c2ccc(F)cc2)C(C)C)c1=O [Compound 266] | 0
* CCOCn1c(=O)on(C(=O)N(c2ccc(F)cc2)C(C)C)c1=O [Compound 295] | 8

What value of B. signalgrass plant response rating has been recorded for this entry: CC(C)N(C(=O)n1oc(=O)n(C2CCCO2)c1=O)c1ccc(F)cc1 (stereo not shown) [Compound 345]
0

What value of B. signalgrass plant response rating has been recorded for this entry: Cc1ccccc1-n1c(=O)on(C(=O)N(c2ccc3c(c2)CCC3)C(C)C)c1=O [Compound 278]
0

* * *

Test system: rape
Assay: Test B pre/postemergence rape
Assay type: in vivo, Brassica napus
Details: Rate 500 g/ha, Postemergence; scale 0 to 10, 0 no effect, 10 complete control
Property: Rape plant response rating
Lab note: write the figure by itself, no unit.

• Cc1cc(C)c(-n2c(=O)on(C(=O)N(c3ccc(Cl)cc3)C(C)C)c2=O)c(C)c1 = 3
• CC(C)=CCCC(C)=CCn1c(=O)on(C(=O)N(c2ccc(F)cc2)C(C)C)c1=O = 0

What value of Rape plant response rating has been recorded for this entry: "CC(C)N(C(=O)n1oc(=O)n(Cc2ccccc2)c1=O)c1ccc(F)cc1"
4

What value of Rape plant response rating has been recorded for this entry: "Cc1cccc(C(C)C)c1-n1c(=O)on(C(=O)N(c2ccc(F)cc2)C(C)C)c1=O"
0

* * *

Tested on: soybean
Test: Test B pre/postemergence soybean
Assay type: in vivo, Glycine max
Conditions: Rate 500 g/ha, Postemergence; scale 0 to 10
Property: Soybean plant response rating
Lab note: write the figure by itself, no unit.

Completed entries (count: 3):
- CC(C)N(C(=O)n1oc(=O)n(Cc2ccco2)c1=O)c1ccc(Cl)cc1 [Compound 206]: 2
- CCOC(=O)C=CCn1c(=O)on(C(=O)N(c2ccc(F)cc2)C(C)C)c1=O [Compound 214]: 3
- COC(=O)Cn1c(=O)on(C(=O)N(c2ccc(F)cc2)C(C)C)c1=O [Compound 215]: 1

What value of Soybean plant response rating has been recorded for this entry: CC1CCCCC1n1c(=O)on(C(=O)N(c2ccccc2)C(C)C)c1=O (stereo not drawn) [Compound 162]
4

What value of Soybean plant response rating has been recorded for this entry: CC(C)N(C(=O)n1oc(=O)n([C@@H](C)c2ccccc2)c1=O)c1ccc(Cl)cc1 [Compound 174]
4

What value of Soybean plant response rating has been recorded for this entry: CC(C)N(C(=O)n1oc(=O)n(-c2ccc(OC(F)(F)F)cc2)c1=O)c1ccc(F)cc1 [Compound 202]
3
